Origin of measurements: patent US20070066551

System: IgE (Homo sapiens), P01854-1
Sequence (P01854 other isoform, or with tags, fused parts or gaps): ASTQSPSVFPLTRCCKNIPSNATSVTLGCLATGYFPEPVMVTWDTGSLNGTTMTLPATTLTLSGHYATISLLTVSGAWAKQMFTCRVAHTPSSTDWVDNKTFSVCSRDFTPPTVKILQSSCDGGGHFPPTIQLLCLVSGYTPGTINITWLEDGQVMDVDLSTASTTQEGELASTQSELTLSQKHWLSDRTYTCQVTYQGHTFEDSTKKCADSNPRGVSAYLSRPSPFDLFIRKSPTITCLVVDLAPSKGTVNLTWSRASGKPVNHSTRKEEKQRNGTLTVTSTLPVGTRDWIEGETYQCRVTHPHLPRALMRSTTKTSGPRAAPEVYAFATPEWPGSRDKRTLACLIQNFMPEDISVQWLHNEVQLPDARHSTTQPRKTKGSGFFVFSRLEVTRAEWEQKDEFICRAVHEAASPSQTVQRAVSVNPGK
Experiment: filter
Conditions: as ARC1335 with 2'-OMe-2-aminopurine at 14; 3'-idT; DPBS with Ca/Mg, BSA, RT; parent 2.8 nM
measurement kind: Kd (nM)

{"seq string": "AGCCUGGGGACCCRUGGGGGGCU [ARC2047]", "result number": 4.8}

---

System: IgE (Homo sapiens), P01854-1
Test: filter
Details: dRmY; 2'-deoxy-5mC at 11; DPBS with Ca/Mg, BSA, ssDNA, tRNA; parent 20 nM; other run 10.4 nM (Table 13, parent 8.5 nM)
pKd: −log10 of the molar value.

{"seq string": "AGCCUGGGGACCCAUGGGGGGCU [ARC599]", "pKd": 7.69}
